MEASUREMENT DESCRIPTION: basal RPMI8226 viability, no added stimulus, profiling panel, cell-based, calcein-AM fluorescence, 48 h, PK04 Diversity Set (AID 1166);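 further: cells grown under basal conditions without added stimulus; test concentration not given here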
RUN PARAMETERS: RPMI8226 myeloma viability, higher = more signal
Param label: returns condition met when z-score < -0.5, returns condition not met otherwise, including exact equality.

Illustrative cases are given below, each with its answer.
MOLECULE	LABEL
CN1C(=O)C2C=CC(C(O)c3cc(C(F)(F)F)cc(C(F)(F)F)c3)N(N3CCCCC3)C2C1=O (centres undefined)	condition met
COC(=O)c1c(CC[C@@H](CO)NC(=O)N2CCC[C@H]2Cn2cc(-c3ccccn3)nn2)oc(C(C)=O)c1C(=O)OC	condition not met
O=C1[C@H]2C=C(Br)[C@H](C[C@@H]2c2ccccc2)[C@@]12CO2	condition met
COc1ccc(C(=O)Nc2ccc(CN3C(=O)[C@@]4(O[C@@H](CCO)[C@H]([Si](C)(C)c5ccc(OC)cc5)[C@H]4C)c4ccccc43)cc2)cc1	condition met
O=C(NCc1ccccc1)[C@@H]1c2ccccc2C(=O)N(CC23CC4CC(CC(C4)C2)C3)[C@H]1c1ccc(CO)cc1	condition met
CC(C)C[C@@H]1NC(=O)[C@@H]2C[C@H](C(=O)NCCCCCN)[C@H](c3cccc(OCCO)c3)N2C1=O	condition not met
COc1ccc([C@H]2OC[C@@H]3CC4(CC=CC4)C(=O)N32)cc1	condition not met
CN(C)CCCNC(=O)[C@@]1(c2ccc([N+](=O)[O-])cc2)CC(=O)N(C2CCCCC2)[C@@H]1c1ccc(CO)cc1I	condition met
CN(C)CCCCCCNC(=O)[C@@H]1C[C@@H]2C(=O)N[C@@H](CCCCN)C(=O)N2[C@@H]1c1cccc(OCCO)c1	condition not met
O=C(c1ccccc1)N1Cc2ccccc2[C@@H]2OC(c3ccc(OCCCO)cc3)=N[C@]2(Cc2ccccc2)C1=O	condition met

Lookup: Is -0.5 strictly greater than the molecule's reported z-score? molecule: CCOC(=O)C[C@H]1[C@H](OC(=O)c2cc3ccccc3oc2=O)[C@@H](NC(=O)Cc2ccc(OC)cc2)c2cc(OCCCO)ccc2N1C(=O)c1ccccc1
Found: condition met

Lookup: Is -0.5 strictly greater than the molecule's reported z-score? molecule: NC(=O)[C@@H]1[C@H]2C(=O)O[C@H](c3ccccc3)[C@H](c3ccccc3)N2[C@H](c2ccc(O)cc2)[C@@]12C(=O)Nc1ccc(C#CC3(O)CCCCCC3)cc12
Found: condition not met

Lookup: Is -0.5 strictly greater than the molecule's reported z-score? molecule: C=CCOC(=O)[C@H]1[C@@H]2C(=O)O[C@@H](c3ccccc3)[C@@H](c3ccccc3)N2[C@@H](c2ccc(OCCOC(=O)[C@H]3C[C@H]4C(=O)N[C@@H](CC(C)C)C(=O)N4[C@H]3c3ccc(O)cc3)cc2)[C@]12C(=O)Nc1ccc(I)cc12
Found: condition not met

Lookup: Is -0.5 strictly greater than the molecule's reported z-score? molecule: COCCCNC(=O)[C@@]1(Cc2ccccc2N=[N+]=[N-])N=C(c2ccc(OCCCO)cc2)O[C@H]1c1ccccc1N=[N+]=[N-]
Found: condition met
